Biological target: DN-III quality control recombinant protein (produced by Fapon Biotech InC.) (dengue virus)
Test: BLI, AMC sensor, antibody captured
endpoint: kon (M⁻¹ s⁻¹)
Provide only the numeric value, understood in M⁻¹ s⁻¹.

- Mutation 1-8 (antibody, V domains shown) VH: EVQLQQSGTELVRPGALVKLSCKASGFNIKDYYLHWVKQRPRQGLEWIGWIDPENGKTIYDPKFQDKASITSDTSTNTAYLQLRSLTSEDTAVYYCVTAYYRFVYWGQGTLVTVSA VL: QIVLTQSPAIMSAFPGERVTMTCSASTSVRYMYWHQQKPGSSPRLLIYDTSNVASGVPVRFSGSGSGTSYSLTISRDEAMDAATYYCQQWSSFPRTFGGGTKLEIKR: 33200

Problem: In one line, give reported kon of the entry Mutation 1-9 (antibody, V domains shown) VH: EVQLQQSGTELVRPGALVKLSCKASGFNIKDYYVHWVKQRPRQGLEWIGWIDPENGKTLYDPKFQDKASITSDTSTNTAYLQLRSLTSEDTAVYYCVSAYVRFVYWGQGTLVTVSA VL: QIVLTQSPAIMSAFPGERVTMTCSASSSVRYMYWHQQKPGSSPRLLIYDTSNIASGVPVRFSGSGSGTSYSLTISRDEAMDAATYYCQQWSSTPRTFGGGTKLEIKR .
Solution: 30100
